Cited source for all entries: paper PMC5933782

SYSTEM UNDER TEST: DYRK2 (Homo sapiens, UniProt Q92630)
Sequence (Q92630 whole entry): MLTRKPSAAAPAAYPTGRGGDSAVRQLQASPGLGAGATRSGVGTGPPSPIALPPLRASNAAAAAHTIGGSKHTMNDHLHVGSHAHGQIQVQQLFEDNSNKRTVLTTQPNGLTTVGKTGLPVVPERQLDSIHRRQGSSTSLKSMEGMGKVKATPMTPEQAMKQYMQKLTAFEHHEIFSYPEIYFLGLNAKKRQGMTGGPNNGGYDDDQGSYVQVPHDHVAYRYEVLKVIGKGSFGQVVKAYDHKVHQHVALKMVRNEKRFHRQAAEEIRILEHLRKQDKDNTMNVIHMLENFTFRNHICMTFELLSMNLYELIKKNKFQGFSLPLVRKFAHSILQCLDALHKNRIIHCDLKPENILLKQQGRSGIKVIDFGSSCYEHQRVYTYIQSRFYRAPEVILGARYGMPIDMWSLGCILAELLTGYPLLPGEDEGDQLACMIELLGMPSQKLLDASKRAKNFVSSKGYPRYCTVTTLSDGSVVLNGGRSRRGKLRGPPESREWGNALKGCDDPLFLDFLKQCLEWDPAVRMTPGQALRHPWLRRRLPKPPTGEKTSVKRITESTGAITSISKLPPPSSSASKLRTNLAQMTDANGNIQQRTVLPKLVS
ASSAY PROCEDURE: radiometric protein kinase assay
Type: biochemical
EXPERIMENTAL PARAMETERS: 10 µM concentration; ± SEM
READOUT NAME: Residual enzyme activity DYRK 2

INPUT: Record request: Residual enzyme activity DYRK 2 value, item CCc1[nH]c2c3c(ccc2c1C)CNC3=O [S18a]
OUTPUT: 42±12%

INPUT: Quick check: Residual enzyme activity DYRK 2 of CCc1c(-c2ccccc2)[nH]c2c3c(ccc12)CNC3=O [S18d] ?
OUTPUT: 50±6%

INPUT: Need Residual enzyme activity DYRK 2 of Cc1[nH]c2c3c(ccc2c1C)CNC3=O [S18b] , thanks.
OUTPUT: 61±4%

INPUT: Param item = Cc1ccc(-c2[nH]c3c4c(ccc3c2C)CNC4=O)cc1 [S18e] ; retrieve measured Residual enzyme activity DYRK 2.
OUTPUT: 75±11%

INPUT: Tell me the measured Residual enzyme activity DYRK 2 of Cc1[nH]c2c3c(ccc2c1C)C(=O)NC3=O [S19] , please.
OUTPUT: 20±5%

INPUT: Look up Residual enzyme activity DYRK 2 for this compound: Cc1c(-c2ccccc2)[nH]c2c3c(ccc12)CNC3=O [S18c]
OUTPUT: 57±25%
